Data provenance is the supplement of paper PMC6658780.

# Tested on: Klebsiella pneumoniae KPC-119
# Method description: percent growth inhibition of drug alone vs DMSO control; higher = more growth inhibition
# Test settings: antibiotic (0.125x MIC): none (0.1% DMSO); 7 µM
Measure: percent growth inhibition of drug alone (%)
Enter your answer as a number in %; do not include the unit.

Lookup: Give measured percent growth inhibition of drug alone for CO[C@H]1/C=C/O[C@@]2(C)Oc3c(C)c(O)c4c(c3C2=O)C2=NC3(CCN(CC(C)C)CC3)NC2=C(NC(=O)/C(C)=C\C=C\[C@H](C)[C@H](O)[C@@H](C)[C@@H](O)[C@@H](C)[C@H](OC(C)=O)[C@@H]1C)C4=O [Rifabutin] (Klebsiella pneumoniae KPC-119).
Found: 8.64

Lookup: Report percent growth inhibition of drug alone from Klebsiella pneumoniae KPC-119 testing of O=C1NCCN1c1ncc([N+](=O)[O-])s1 [Niridazole]
Found: 9.23

Lookup: Specify the recorded percent growth inhibition of drug alone for C=CC1=C(C(=O)O)N2C(=O)[C@@H](NC(=O)/C(=N\OCC(=O)O)c3csc(N)n3)[C@H]2SC1 [Cefixime] , system: Klebsiella pneumoniae KPC-119.
Found: 9.48

====

# Test system: Escherichia coli ATCC BAA-2469
# Method description: percent growth inhibition of drug alone vs DMSO control; higher = more growth inhibition
# Test settings: antibiotic (0.125x MIC): none (0.1% DMSO); 20 µM
Where a name gives a salt, the structure may show the parent alone.
Measure: percent growth inhibition of drug alone (%)
Kindly provide the numeric value in % only, without the unit symbol.

{"columns": ["Compound", "Measure unit", "percent growth inhibition of drug alone"],
 "data": [
  ["O=C1OCCN1/N=C/c1ccc([N+](=O)[O-])o1", "%", 115],
  ["Cc1cn([C@H]2C[C@H](N=[N+]=[N-])[C@@H](CO)O2)c(=O)[nH]c1=O", "%", 115],
  ["CCCCCCCCNC(C)C(O)c1ccc(SC(C)C)cc1 (centres undefined)", "%", 10.4],
  ["CC1=C(/C=C/C(C)=C/C=C/C(C)=C\\C(=O)O)C(C)(C)CCC1", "%", 3.78],
  ["Nc1nc(F)nc2c1ncn2[C@@H]1O[C@H](CO)[C@@H](O)[C@@H]1O", "%", 59.1]
]}

Lookup: GET percent growth inhibition of drug alone where system = Escherichia coli ATCC BAA-2469 and item = CCCCC(CC)CNC(=N)NC(=N)NCCCCCCNC(=N)NC(=N)NCC(CC)CCCC (centres undefined) [Alexidine dihydrochloride]
Found: 112

Lookup: Enter percent growth inhibition of drug alone (test system Escherichia coli ATCC BAA-2469) for Nc1ccn([C@@H]2O[C@H](CO)[C@@H](O)C2(F)F)c(=O)n1
Found: 28.3

Lookup: Would you please give the reported percent growth inhibition of drug alone of O=c1[nH]c(=O)n([C@H]2C[C@H](O)[C@@H](CO)O2)cc1C(F)(F)F with Escherichia coli ATCC BAA-2469?
Found: 11.3

====

# Tested on: Escherichia coli ATCC BAA-2469
# Method description: percent growth inhibition of drug + antibiotic vs DMSO control; higher = more growth inhibition
# Test settings: antibiotic (0.125x MIC): meropenem; 7 µM
Counter-ions that a name gives are not always drawn.
I would appreciate it if you labelled entries MET when percent growth inhibition is 40% or higher, otherwise NOT MET.

Consider the following illustrative entries.
{"columns": ["Compound", "Group"],
 "data": [
  ["Cc1cc(/C=C/c2ccc3cc(N(C)C)ccc3[n+]2C)c(C)n1-c1ccccc1 [Pyrvinium pamoate]", "NOT MET"],
  ["O=C1NCCN1c1ncc([N+](=O)[O-])s1 [Niridazole]", "MET"]
]}

Lookup: Kindly determine if percent growth inhibition recorded for NC(=O)N/N=C/c1ccc([N+](=O)[O-])o1 [Nitrofural] is above or exactly 40%.
Found: NOT MET

Lookup: Is the recorded value of percent growth inhibition equal to or greater than 40% for this compound? CO[C@H]1/C=C/O[C@@]2(C)Oc3c(C)c(O)c4c(O)c(c5c(nc6cc(C)ccn65)c4c3C2=O)NC(=O)/C(C)=C\C=C\[C@H](C)[C@H](O)[C@@H](C)[C@@H](O)[C@@H](C)[C@H](OC(C)=O)[C@@H]1C [Rifaximin]
Found: MET

Lookup: For this compound, is measured percent growth inhibition 40% or higher? CCC[C@@H]1C[C@@H](C(=O)N[C@@H]([C@H]2O[C@H](SC)[C@H](O)[C@@H](O)[C@H]2O)[C@H](C)Cl)N(C)C1 [Clindamycin hydrochloride]
Found: NOT MET
